// provenance: PubChem BioAssay

- Test system: XIP peptide (Xip251-270)
- assay_info: small-molecule binders of XIP peptide, primary screen, biochemical, small-molecule microarray, fluorescence 635/667 nm, 0.5 µg/mL protein (AID 1183)
- protocol_conditions: small-molecule microarray binding, fluorescence 635 nm; higher = more signal
Some compounds, each annotated with its measured composite z-score.

compound	measurement_target	composite z-score
C=CC[C@]1(C(=O)O)COC(c2ccc(OCCCO)cc2)=N1	XIP peptide (Xip251-270)	0.614
COc1ccc([Si](C)(C)[C@@H]2[C@@H](CC(=O)N(CCO)Cc3ccccc3)O[C@]3(C(=O)N(Cc4cccc(N5CCOC5=O)c4)c4ccccc43)[C@H]2C)cc1	XIP peptide (Xip251-270)	0.799
C=CCC(OC(C)=O)[C@@H]1[C@@H](N(Cc2cc3ccccc3o2)C(=O)c2ccc(C)cc2)c2cc(OCCCO)ccc2N1C(=O)Cc1ccc(OC)cc1 (some centres not stated)	XIP peptide (Xip251-270)	0.0544
COc1cc2c(cc1O)C(C)N(Cc1ccc([N+](=O)[O-])o1)CC2 (configuration not stated)	XIP peptide (Xip251-270)	0.962
CN1C(=O)C2C=CC(C(O)c3cccc4ccccc34)N(N3CCCCC3)C2C1=O (configuration not stated)	XIP peptide (Xip251-270)	0.749
CC(C)N1C(=O)C[C@@](C(=O)NCCCN(C)C)(c2ccc([N+](=O)[O-])cc2)[C@H]1c1ccc(CO)cc1	XIP peptide (Xip251-270)	0.51
COCCOC(=O)N1C(=O)[C@@]2(c3cc(C#CCCO)ccc31)[C@H](C(=O)Nc1nc3ccccc3s1)[C@H]1C(=O)O[C@H](c3ccccc3)[C@H](c3ccccc3)N1[C@@H]2c1ccccc1OCCO	XIP peptide (Xip251-270)	0.73

###

- System: Chordin-like protein 2 (CHRDL2)
- assay_info: CHRDL2 small-molecule binders, primary screen, biochemical, small-molecule microarray, 635 nm fluorescence (AID 1126);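 also: printed compound slides probed with Chrdl2 protein at 4 µg/mL for 1 h at 4 C; score merges 667 nm emission intensity with signal to noise over three replicate slides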
- protocol_conditions: small-molecule microarray binding, fluorescence 635 nm; higher = more signal
Consider the following compounds and their measured composite z-score readings.

compound	measurement_target	composite z-score
CN(C)C(=O)[C@]1(CCS(=O)(=O)c2ccccc2)N=C(c2ccc(OCCCO)cc2)O[C@@H]1c1ccccc1N=[N+]=[N-]	Chordin-like protein 2 (CHRDL2)	0.555
COCCCNC(=O)[C@]1(CCS(=O)(=O)c2ccccc2)N=C(c2ccc(OCCCO)cc2)O[C@@H]1c1ccccc1N=[N+]=[N-]	Chordin-like protein 2 (CHRDL2)	-0.71
COC(=O)[C@@]1(Cc2ccccc2)[C@@H]2C(=CC(=O)[C@H]2CC(=O)C(=O)N(C)C)CN1C(=O)c1ccccc1	Chordin-like protein 2 (CHRDL2)	-0.202
CO[C@H]1O[C@H](CO)[C@@H](OC(=O)Nc2ccccc2-c2ccccc2)[C@H](OC(=O)Nc2ccc3c(c2)OCO3)[C@H]1OC(=O)Nc1ccc2c(c1)OCO2	Chordin-like protein 2 (CHRDL2)	0.454
C=CCC(OC(C)=O)[C@@H]1[C@@H](N(Cc2cc3ccccc3o2)C(=O)c2ccc(C)cc2)c2cc(OCCCO)ccc2N1C(=O)Cc1ccc(OC)cc1 (some centres not stated)	Chordin-like protein 2 (CHRDL2)	0.172
C=C[C@@H](OC)[C@H](OC(=O)Nc1ccc(SC)cc1)c1ccc(O)c(F)c1	Chordin-like protein 2 (CHRDL2)	0.0611
COc1ccc([Si](C)(C)[C@H]2[C@H](CCn3cc([C@H](O)c4ccccc4)nn3)O[C@@]3(C(=O)N(Cc4ccc(N5C(=O)c6cccc7cccc5c67)cc4)c4ccccc43)[C@@H]2C)cc1	Chordin-like protein 2 (CHRDL2)	-0.803
COc1ccc([Si](C)(C)[C@@H]2[C@@H](CC(=O)N3Cc4ccccc4C[C@H]3CO)O[C@]3(C(=O)N(Cc4cccc(N5C(=O)c6cccc7cccc5c67)c4)c4ccccc43)[C@H]2C)cc1	Chordin-like protein 2 (CHRDL2)	1.27
COc1cc(OC)c(C(O)C2C=CC3C(=O)N(C)C(=O)C3N2NC(=O)OC(C)(C)C)cc1Br (configuration not stated)	Chordin-like protein 2 (CHRDL2)	-0.251
CCCCC=C[C@@H](NC(=O)c1ccc(-c2ccccc2)cc1)c1ccccc1	Chordin-like protein 2 (CHRDL2)	-0.309
COc1ccc(CN(C2=CC[C@@]3(C(N)=O)C(=O)C(Cl)=C(Cl)C(=O)[C@@]3(C#N)C2)S(=O)(=O)c2ccc(Br)cc2)cc1	Chordin-like protein 2 (CHRDL2)	-1.54
O=C(NCC(F)(F)F)[C@@H]1c2ccccc2C(=O)N(Cc2cc(F)cc(C(F)(F)F)c2)[C@H]1c1ccc(CO)cc1	Chordin-like protein 2 (CHRDL2)	-1.11
C=C(COC)C(=O)CC[C@@H](OC(=O)c1cccnc1)c1ccc(OCCO)cc1	Chordin-like protein 2 (CHRDL2)	1.12
CC[C@H]1C2=C3C(CC[C@H]4C(OCc5ccc(F)cc5C(F)(F)F)OC[C@](C)([C@@H]34)N(C(=O)OC(C)(C)C)C2)C(COC)C1COC (some centres not stated)	Chordin-like protein 2 (CHRDL2)	-0.882
C=CCN1C(=O)[C@@]2(O[C@@H](CCn3cc([C@H](O)c4ccccc4)nn3)[C@H]([Si](C)(C)c3ccc(OC)cc3)[C@H]2C)c2cc(N3CCC3=O)ccc21	Chordin-like protein 2 (CHRDL2)	0.163
CCOC(=O)C[C@H]1[C@H](OC(=O)Cc2ccc3c(c2)OCO3)[C@@H](NC(=O)CC(C)C)c2cc(OCCCO)ccc2N1C(=O)Cc1ccc(OC)cc1	Chordin-like protein 2 (CHRDL2)	-0.226
Cc1ccccc1C(O)C1C=CC2C(=O)N(C)C(=O)C2N1N(c1ccccc1)c1ccccc1 (configuration not stated)	Chordin-like protein 2 (CHRDL2)	0.682
CCOC(=O)C[C@H]1[C@H](OC(=O)c2cc3ccccc3oc2=O)[C@@H](NC(=O)Cc2ccc(OC)cc2)c2cc(OCCCO)ccc2N1C(=O)c1ccc2ccccc2n1	Chordin-like protein 2 (CHRDL2)	0.583
COCCCNC(=O)[C@@]1(Cc2ccccc2N=[N+]=[N-])N=C(c2ccc(OCCCO)cc2)O[C@H]1c1ccccc1	Chordin-like protein 2 (CHRDL2)	0.099
COCCOC(=O)N1C(=O)[C@@]2(c3cc(C#Cc4ccc(OC)cc4)ccc31)[C@H](C(=O)Nc1nc3ccccc3s1)[C@H]1C(=O)O[C@H](c3ccccc3)[C@H](c3ccccc3)N1[C@@H]2c1ccc(O)cc1	Chordin-like protein 2 (CHRDL2)	0.576
O=C1O[C@@H](c2ccccc2)[C@@H](c2ccccc2)N2[C@@H](c3ccccc3OCCO)[C@]3(C(=O)Nc4ccc(C#CCCO)cc43)[C@@H](C(=O)N3CCCCCCC3)[C@H]12	Chordin-like protein 2 (CHRDL2)	1.72
COc1ccc(CCNC(=O)[C@@H]2c3ccccc3C(=O)N(Cc3cc(C(F)(F)F)cc(C(F)(F)F)c3)[C@H]2c2ccc(CO)cc2)cc1	Chordin-like protein 2 (CHRDL2)	-0.571
COCCCNC(=O)[C@]1(CCS(=O)(=O)c2ccccc2)N=C(c2ccc(OCCCO)cc2)O[C@@H]1c1ccccc1CN=[N+]=[N-]	Chordin-like protein 2 (CHRDL2)	-0.79
C=CCC(OC(C)=O)[C@@H]1[C@@H](N(Cc2ccc(-c3cccc(C(F)(F)F)c3)o2)C(=O)c2ccc(C)cc2)c2cc(OCCCO)ccc2N1C(=O)c1ccc2ccccc2c1 (some centres not stated)	Chordin-like protein 2 (CHRDL2)	0.287
C[N+](C)(C)CCCCCCNC(=O)[C@H]1C[C@H]2C(=O)NCC(=O)N2[C@H]1c1ccc(O)cc1	Chordin-like protein 2 (CHRDL2)	0.856
O=C1O[C@H](c2ccccc2)[C@H](c2ccccc2)N2[C@H]1[C@@H](C(=O)O)[C@]1(C(=O)Nc3ccc(C#CC4=CCCCC4)cc31)[C@H]2c1ccc(O)cc1	Chordin-like protein 2 (CHRDL2)	0.285
CCCC[C@@H]1C[C@H]1[C@@H](NC(=O)c1ccccc1)c1ccc(C(F)(F)F)cc1	Chordin-like protein 2 (CHRDL2)	-1.15

###

- measurement_target: Dihydroorotate dehydrogenase (quinone), mitochondrial (Plasmodium falciparum (isolate 3D7))
- assay_info: PfDHODH enzyme inhibitors, primary screen, biochemical, C-terminal His tag, absorbance 600 nm (AID 1175);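 also: recombinant parasite enzyme with a five histidine tag at its C terminus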
- protocol_conditions: DCIP absorbance 600 nm, higher = more signal, called active from +8 up or from −8 down
Binary call on composite z-score: met from 0.1 upward, not met beneath that.

compound	discrete_label
O=C(CS)NCCCCCCNC(=O)[C@H]1C[C@H]2C(=O)N[C@@H](Cc3ccccc3)C(=O)N2[C@H]1c1ccc(O)cc1	not met
CN1C(=O)C2C=CC(C(O)c3cccc(O)c3)N(Nc3ccccc3)C2C1=O (stereo not drawn)	met
Cc1ccccc1C(O)C1C=CC2C(=O)N(C)C(=O)C2N1N(c1ccccc1)c1ccccc1 (stereo not drawn)	not met
O=C(NCc1ccccc1)[C@@H]1c2ccccc2C(=O)N(Cc2ccccc2C(F)(F)F)[C@H]1c1ccc(CO)cc1	met
C=CC1c2cc(O)c(OC)cc2CCN1Cc1cc2c(cc1Br)OCO2 (stereo not drawn)	not met
CC1=C[C@@]2(CO)C(=O)[C@]3(CO3)[C@@H]1[C@H]1[C@]2(C)C=C(CO)C(=O)[C@]12CO2	not met
CN(C)C(=O)[C@@]1(CCS(=O)(=O)c2ccccc2)N=C(c2ccc(OCCCO)cc2)O[C@H]1c1ccccc1	not met
CC[C@H]1C2=C3C(CC[C@H]4C(OCc5ccc(F)cc5C(F)(F)F)OC[C@](C)([C@@H]34)N(C(=O)OC(C)(C)C)C2)C(COC)C1COC (stereo partly drawn)	not met
O=C1OCC=C[C@H]2OC34C=CCN(Cc5ccccc5)C(=O)[C@H]3N(CCCCCCO)C(=O)[C@@H]4[C@@H]12 (stereo partly drawn)	not met
COc1cc(OC)c(C(O)C2C=CC3C(=O)N(C)C(=O)C3N2NC(=O)OC(C)(C)C)cc1Br (stereo not drawn)	met
COC(=O)C(CC#Cc1ccc2c(c1)[C@]1(C(=O)N2)[C@H](C(=O)N2CCN(c3ncccn3)CC2)[C@H]2C(=O)O[C@H](c3ccccc3)[C@H](c3ccccc3)N2[C@@H]1c1ccc(OCCO)cc1)C(=O)OC	not met
COCCOC(=O)N1C(=O)[C@@]2(c3cc(C#CCNC(N)=O)ccc31)[C@H](C(=O)N1CCc3cc(OC)c(OC)cc3C1)[C@H]1C(=O)O[C@H](c3ccccc3)[C@H](c3ccccc3)N1[C@@H]2c1ccccc1OCCO	not met
[N-]=[N+]=Nc1ccccc1[C@H]1OC(c2ccc(OCCCO)cc2)=N[C@@]1(Cc1ccccc1)C(=O)N1CCCCC1	not met
COCCOC(=O)N1C(=O)[C@@]2(c3cc(C#CC4=CCCCC4)ccc31)[C@H](c1ccccc1OCCO)N1[C@H](c3ccccc3)[C@H](c3ccccc3)OC(=O)[C@H]1[C@@H]2C(=O)N1CCCCCCC1	met
Cc1ccc(S[C@]2(C(=O)NCCCN(C)C)CC(=O)N(C3CCCCC3)[C@@H]2c2ccc(CO)cc2)cc1	met
Cc1ccc(S[C@]2(C(=O)NCC(F)(F)F)CC(=O)N(C3CCCCC3)[C@@H]2c2ccc(CO)cc2I)cc1	not met
Cc1ccc(S[C@]2(C(=O)O)CC(=O)N(Cc3cc(C(F)(F)F)cc(C(F)(F)F)c3)[C@@H]2c2ccc(CO)cc2)cc1	not met
COCCOC(=O)N1C(=O)[C@@]2(c3ccccc31)[C@H](C(=O)N1CCN(c3ncccn3)CC1)[C@H]1C(=O)O[C@H](c3ccccc3)[C@H](c3ccccc3)N1[C@@H]2c1ccc(O)cc1	not met
CCC(CC)C(O)C1C=CC2C(=O)N(c3ccccc3)C(=O)C2N1Nc1ccc(C(C)C)cc1 (stereo not drawn)	met
COc1ccc(C(O)C2C=CC3C(=O)N(c4ccccc4)C(=O)C3N2Nc2ccc([N+](=O)[O-])cc2)cc1 (stereo not drawn)	not met
[N-]=[N+]=Nc1ccccc1[C@H]1OC(c2ccc(OCCCO)cc2)=N[C@@]1(CCS(=O)(=O)c1ccccc1)C(=O)NCCN1CCOCC1	met
CC(C)C(=C=CC[C@H](O)c1cccc(OCCO)c1)C[C@H](O)c1cc(Cl)cc(Cl)c1O	not met
COC(=O)c1c(CC[C@@H](CO)NC(=O)N[C@H](Cn2cc(C3(O)CCCCC3)nn2)C(C)C)oc(C(C)=O)c1C(=O)OC	not met
O=C1O[C@H](c2ccccc2)[C@H](c2ccccc2)N2[C@H]1[C@@H](C(=O)N1CCN(c3ncccn3)CC1)[C@]1(C(=O)Nc3ccc(C#CC4(O)CCCCCC4)cc31)[C@H]2c1ccc(OCCO)cc1	not met
COCCOC(=O)N1C(=O)[C@@]2(c3cc(C#CC4=CCCCC4)ccc31)[C@H](c1ccc(OCCO)cc1)N1[C@H](c3ccccc3)[C@H](c3ccccc3)OC(=O)[C@H]1[C@@H]2C(=O)N1CCN(c2ncccn2)CC1	not met
CO[C@]12C=C(Br)[C@@H](C[C@@H]1c1cccc(C)c1)[C@@]1(CO1)C2=O	met
C=C(C)C1CCC(C(O)C2C=CC3C(=O)N(C)C(=O)C3N2N2CCCCC2)CC1 (stereo not drawn)	met
